B1: TPR 5TU (parent)
chain: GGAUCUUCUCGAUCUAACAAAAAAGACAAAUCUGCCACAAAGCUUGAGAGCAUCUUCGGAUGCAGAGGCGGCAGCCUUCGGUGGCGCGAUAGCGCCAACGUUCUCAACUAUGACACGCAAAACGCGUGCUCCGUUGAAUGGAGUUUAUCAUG

# Variants of: B1
# measurement-notes: polymerase ribozyme fitness, log enrichment relative to wild type (log ratio); higher = more active; in vitro selection for triplet polymerase activity
This sample holds only a part of the variants without activity.

| mutation-code | sign | polymerase ribozyme fitness (log ratio) |
| --- | --- | --- |
| C32G G42A U77C G84U | ≤ | -4.2 |
| C35U C57A U61A G67A C95A C103A C116U | ≤ | -4.2 |
| A39G G48A U56A C76A C79U C105U | ≤ | -4.2 |
| G34U G68U C95G G133A | ≤ | -4.2 |
| G100U A142C | = | -4.17 |
| A3G A47G U61A G94U C99A C108U U135G | ≤ | -4.2 |
| A41U C85U C99A C105A C118G A119C | ≤ | -4.2 |
| A37U G50C U78C A98U U134C | ≤ | -4.2 |
| C14U U31C C76U G84U A142G G143U U146G | ≤ | -4.2 |
| G71U C85G U134G U139G | ≤ | -4.2 |
| C51U U55A C75A C85U U101A C114U A115G G124A | ≤ | -4.2 |
| A115U G136A | = | -1.18 |
| G25U C38U | = | -1.98 |
| C69U C85U | = | -1.39 |
| C93U A119G C123U U135G | = | -4.18 |
| A26U C54A G65A A98G | = | -4.2 |
| A28U A40C C75U G83U G133A | ≤ | -4.2 |
| C96A G140U | = | -3.47 |
| G34C C51A G58A G59C C96A A107U | ≤ | -4.2 |
| A52G U53G | = | -3.21 |
| A17G A19C G80C G92A C116U G136C G140A | ≤ | -4.2 |
| A49G C51G U78C C96G | = | -4.14 |
